Origin of measurements: ChEMBL document CHEMBL5331045

target: Metallo-beta-lactamase type 2 (Bacteria); test: Inhibition of NDM1 (unknown origin); conditions: read-out: IC50
measurement-name: IC50 (µM)

[1] N[C@H](CN[C@H](CN[C@@H](CC(=O)O)C(=O)O)C(=O)O)C(=O)O
[2] C[C@H](CS)C(=O)N[C@@H](Cc1c[nH]c2ccccc12)C(=O)O
[3] C[C@H](CS)C(=O)N[C@H](Cc1c[nH]c2ccccc12)C(=O)O
Data request: Your job: order these 3 records by IC50, ascending. API: response body holds the labels in the requested order.
Data returned: 1, 3, 2
(1: 9.9 µM, 3: 24.8 µM, 2: 64.8 µM)

====

molecular target: Metallo-beta-lactamase type 2 (Bacteria, UniProt C7C422); assay: Binding affinity to N-terminal 6xHis tagged NDM-1 (42-270 residues) (unknown origin) expressed in Escherichia coli BL21 (DE3) assessed as inhibition constant using nitrocefin as substrate by monochromator based microplate reader analysis
Sequence (C7C422 whole entry, the tested form may be a part): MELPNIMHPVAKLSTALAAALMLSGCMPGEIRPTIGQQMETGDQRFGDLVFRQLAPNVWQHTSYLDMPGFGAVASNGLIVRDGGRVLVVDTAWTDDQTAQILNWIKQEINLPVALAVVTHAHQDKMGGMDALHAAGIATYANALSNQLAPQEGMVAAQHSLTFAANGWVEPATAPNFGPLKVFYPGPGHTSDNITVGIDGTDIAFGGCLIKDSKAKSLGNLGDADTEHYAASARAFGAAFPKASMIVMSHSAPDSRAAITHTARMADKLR
measurement-name: Ki (µM)

O=C(Nc1nnn[nH]1)c1cc(-c2ccccc2)n(-c2ccccc2)n1    56
O=C(Nc1nnn[nH]1)c1cc(-c2ccccc2)nn1-c1ccccc1    62

====

assay: Binding affinity to Acinetobacter derived cephalosporinase 7 (D24-K383 residues) assessed as inhibition constant
measurement-name: Ki (µM)
Unit µM implied. Number only.

Data request: Which Ki reading was recorded for the compound O=C(O)c1cn(CB(O)O)nn1 ?
Data returned: 6.1

====

test: Binding affinity to GOB18 (unknown origin) assessed as inhibition constant by measuring imipenem hydrolysis; set-up: species or system Homo sapiens
measurement-name: Ki (µM)
Unit µM implied. Number only.

O=C(O)[C@@H]1CS[C@H]2CS[C@H](CS)N21    41

Kindly consider the entry below.
Data request: Which Ki reading was recorded for the molecule O=C(O)[C@H]1CS[C@@H]2CS[C@@H](CS)N12 ?
Data returned: 30

====

experiment: Binding affinity to VIM4 (unknown origin) assessed as inhibition constant; design: species or system Homo sapiens
pKi: −log10 of the molar value.
measurement-name: pKi

O=C(O)CCCn1c(-c2cccc(-c3ccccc3)c2)n[nH]c1=S    6.57

[A] O=C(O)c1ccccc1CCn1c(-c2cccc(OCCN3CCOCC3)c2)n[nH]c1=S
[B] O=C(O)c1ccccc1CNn1c(-c2cccc(-c3ccccc3)c2)n[nH]c1=S
Data request: Which value of pKi is numerically greater: that of A or that of B ? Return value: the label identifying the chosen record.
Data returned: B

====

assay: Binding affinity to KPC2 (unknown origin) assessed as inhibition constant; set-up: species or system Homo sapiens
pKi: −log10 of the molar value.
measurement-name: pKi

O=C(Cc1cccs1)N[C@@H](Cn1cc(C(=O)O)nn1)B(O)O    6.10
O=C(Cc1cccs1)N[C@H](B(O)O)c1cccc(C(=O)O)c1    6.22

====

biological target: Beta-lactamase CTX-M-14 (Escherichia coli, UniProt Q9L5C7); experiment: Binding affinity to Escherichia coli CTX-M-14 assessed as inhibition constant using nitrocefin as substrate by microplate reader analysis
measurement-name: Ki (nM)
Unit nM implied. Number only.

Data request: Which Ki reading was recorded for the compound O=C(Nc1cccc(-c2nnn[nH]2)c1)c1cc(C(F)(F)F)cc2[nH]cnc12 ?
Data returned: 85

====

test: Inhibition of Aeromonas hydrophila IMP1 preincubated for 30 mins followed by nitrocefin solution measured by UV based microtitre plate analysis
measurement-name: pIC50
# pIC50 is unitless: minus log10 of the molar concentration; print number only

Data request: Which pIC50 reading was recorded for the compound NCCONC(=O)[C@@H]1CC[C@@H]2CN1C(=O)N2OS(=O)(=O)O ?
Data returned: 5.85
